- experimental details: Pharmacokinetic studies in rabbits
- Type: in vivo
- settings: Albino, rabbit, plasma, po, 1 mg/kg
readout label: k el

Exam item: Consider the molecule shown here: "CC(C)(C)NC(=O)[C@H]1CC[C@H]2[C@@H]3CC[C@H]4NC(=O)C=C[C@]4(C)[C@H]3CC[C@]12C" What is its recorded k el?
Marked response: 1.72e-05 s⁻¹

====

- experimental details: Pharmacokinetic studies in rabbits
- Type: in vivo
- settings: Albino, rabbit, plasma, po, 1 mg/kg
readout label: Cmax (ng/mL)
Express your answer in ng/mL, writing the number without its unit.

Exam item: Consider the compound shown here: "CC(C)(C)NC(=O)[C@H]1CC[C@H]2[C@@H]3CC[C@H]4NC(=O)C=C[C@]4(C)[C@H]3CC[C@]12C" What is its recorded Cmax?
Marked response: 39.2
